# ASSAYED_TARGET: OXA-48 (Klebsiella pneumoniae, UniProt Q6XEC0)
# Construct: made in house; host or cells: E. coli BL21(DE3)
# Sequence (Q6XEC0 23-265 limits assumed): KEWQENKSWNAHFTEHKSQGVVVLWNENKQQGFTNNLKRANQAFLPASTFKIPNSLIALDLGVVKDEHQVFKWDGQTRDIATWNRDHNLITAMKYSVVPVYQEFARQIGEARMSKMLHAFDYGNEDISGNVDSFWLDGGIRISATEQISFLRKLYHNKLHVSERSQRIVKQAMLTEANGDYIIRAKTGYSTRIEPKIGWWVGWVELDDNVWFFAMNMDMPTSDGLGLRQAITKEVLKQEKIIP
# TEST: Enzyme inhibition assay against purified OXA-48 with nitrocefin as substrate
# Type: biochemical
# RUN_CONDITIONS: at 50 μM compound; nitrocefin substrate; 50 µM
Assign criterion met to entries whose percent inhibition against OXA-48 meets or exceeds 60%; assign criterion not met to the rest.

Exam item: decide whether the reported percent inhibition against OXA-48 for C[C@@H]1O[C@@H](OC[C@H]2O[C@@H](Oc3c(-c4ccc(O)c(O)c4)oc4cc(O)cc(O)c4c3=O)[C@H](O)[C@@H](O)[C@@H]2O)[C@H](O)[C@H](O)[C@H]1O [Rutin] is at least 60%. criterion not met
